Every entry's value here was drawn from PubChem BioAssay (NCI).

test system: NCI-H226 lung; test: NCI tumour cell line growth inhibition, 48 h; in the data active means GI50 below about 0.43 µM; inactive means the rest
Outcomes: t = active, f = inactive

- Molecule: "Cn1cccc1-c1cc(-c2ccccc2)[nH]c(=O)c1C#N"
  Category: "f"
- Molecule: "C1=C/COCc2cc(ccc2OCCN2CCCC2)Nc2nccc(n2)-c2ccc(o2)COC/1"
  Category: "f"
- Molecule: "NC(=O)[C@@H](CC1CC1)[C@@H](CCC(F)(F)F)C(=O)N[C@H]1N=C(c2ccccc2)c2cccc(F)c2NC1=O"
  Category: "f"
- Molecule: "O=C(Nc1ccc(F)cc1F)c1cc(Cl)ccc1O"
  Category: "f"
- Molecule: "Cc1ccc2nc(-c3ccc(OCC(=O)N=Nc4c(O)[nH]c5ccccc45)cc3)[nH]c2c1"
  Category: "f"
- Molecule: "COc1ccc(/C=C/C(=O)c2ccc(-n3cc(CN4CCN(c5cc6c(cc5F)c(=O)c(C(=O)O)cn6C5CC5)CC4)nn3)cc2)cc1OC"
  Category: "f"
- Molecule: "CCOc1ccc2c(c1)C(=O)c1c-2n(CCCBr)c(=O)c2cc([N+](=O)[O-])ccc12"
  Category: "f"
- Molecule: "COc1ccc(NC(=O)/C=C(C)/C=C/C=C(C)/C=C/C2=C(C)CCCC2(C)C)cc1"
  Category: "f"
- Molecule: "COC(=O)C12CC(NC(=O)c3csc([C@@H](C[C@H](C(C)C)N(C)C(=O)[C@@H](NC(=O)[C@H]4CCCCN4C)C4CC4)OC(C)=O)n3)(C1)C2"
  Category: "f"
- Molecule: "O=C(/C=C/c1ccc(O)c(O)c1)NCc1c[nH]c2ccccc12"
  Category: "f"
- Molecule: "CCCCCCCCOC(=O)c1c(C)[nH]c(/C=C2\\N=C(c3ccc[nH]3)C=C2OC)c1C"
  Category: "t"
- Molecule: "CCN1CCN(c2cc(C)nc(N(CCCNc3ccnc4cc(Cl)ccc34)Cc3ccc4c(c3)OCO4)n2)CC1"
  Category: "f"
- Molecule: "CC[C@@]1(OC(=O)CN)C(=O)OCc2c1cc1n(c2=O)Cc2c-1nc1cc3c(cc1c2CCl)OCO3"
  Category: "t"
- Molecule: "CN(C)CCNC(=O)c1ccc(-c2nc3ccc4[nH]ncc4c3c3c2C2CCC3C2)cc1 (centres undefined)"
  Category: "f"
